I'd appreciate it if you could supply At -80 °C for 48 h, RE values for the items below.
test.name: Stability tests of analytes in rat plasma QC samples
Format: in vitro ADME
condition.label: rat plasma, nominal conc. 400 nM
State just the number; it will be interpreted in %.

q: Given CC(C)=CCC[C@](C)(O[C@@H]1O[C@H](CO)[C@@H](O)[C@H](O)[C@H]1O)[C@H]1CC[C@]2(C)[C@@H]1[C@H](O)C[C@@H]1[C@@]3(C)CC[C@H](O[C@@H]4O[C@H](CO)[C@@H](O)[C@H](O)[C@H]4O[C@@H]4O[C@H](CO)[C@@H](O)[C@H](O)[C@H]4O)C(C)(C)[C@@H]3CC[C@]12C [Compound D2, Ginsenoside Rd] , state its recorded At -80 °C for 48 h, RE.
a: 10.54

q: Given CC(C)=CCC[C@](C)(O)[C@H]1CC[C@]2(C)[C@@H]1[C@H](O)C[C@@H]1[C@@]3(C)CC[C@H](O)C(C)(C)[C@@H]3[C@@H](O[C@@H]3O[C@H](CO)[C@@H](O)[C@H](O)[C@H]3O)C[C@]12C [Compound C1, Ginsenoside Rh1] , state its recorded At -80 °C for 48 h, RE.
a: -9.26

q: Given CC(C)(O)[C@@H]1CC[C@](C)([C@H]2[C@@H](O)C[C@@]3(C)[C@@H]4C[C@H](O[C@@H]5O[C@H](CO)[C@@H](O)[C@H](O)[C@H]5O)[C@H]5C(C)(C)[C@@H](O[C@@H]6OC[C@@H](O)[C@H](O)[C@H]6O)CC[C@@]56C[C@@]46CC[C@]23C)O1 [Compound B2, Astragaloside IV] , state its recorded At -80 °C for 48 h, RE.
a: -7.16

---

test.name: Plasma pharmacokinetics in rats after a 30-min intravenous infusion of Kang-Ai injection
Type: in vivo, Sprague–Dawley rats
condition.label: rat, in vivo, iv
property.measured: VSS (mL)
State just the number; it will be interpreted in mL.

q: Given CC(C)=CCC[C@](C)(O)[C@H]1CC[C@]2(C)[C@@H]1[C@H](O)C[C@@H]1[C@@]3(C)CC[C@H](O)C(C)(C)[C@@H]3[C@@H](O[C@@H]3O[C@H](CO)[C@@H](O)[C@H](O)[C@H]3O[C@@H]3OC[C@@H](O)[C@H](O)[C@H]3O)C[C@]12C [Compound C3, Notoginsenoside R2] , state its recorded VSS.
a: 99.30

q: Given O=C1CCC[C@@H]2[C@H]3CCCN4CCC[C@@](O)(CN12)[C@@H]34 , state its recorded VSS.
a: 53.50

q: Given O=C1C=CC[C@@H]2[C@H]3C[C@H](O)CN4CCC[C@@H](CN12)[C@@H]34 [Compound A6, 9α-hydroxysophocarpine] , state its recorded VSS.
a: 93.63

q: Given O=c1cccc([C@@H]2C[C@H](CO)[C@H]3CCCCN3C2)[nH]1 , state its recorded VSS.
a: 16.89

q: Given O=C1CCCC2=C3CCC[N+]4([O-])CCC[C@@H](CN12)[C@@H]34 (some centres unmarked) [Compound A7, Leontalbinine N-oxide] , state its recorded VSS.
a: 150.70

---

test.name: Urinary (renal) excretion in rats after a 30-min infusion of Kang-Ai injection
Type: in vivo, Sprague–Dawley rats
condition.label: rat urine 0–12 h; Kang-Ai injection 6 mL/kg iv
Protocol: For urine sampling, the rats were housed singly in metabolic cages. And then, the urine samples were collected at 0–4, 4–8 and 8–12 h after starting infusion and were weighed. […] Pharmacokinetic parameters were estimated by non-compartmental analysis using WinNonlin 6.3 software (Pharsight, NC, US). […] The area under the concentration–time curve up to the last measured point in time (AUC0-t) was calculated using the trapezoidal rule. […]
Use 1 when the recorded fe-U,0–12h (fraction of dose excreted into urine) is no lower than 20%; use -1 when it is lower.

q: Is the recorded value of fe-U,0–12h (fraction of dose excreted into urine) equal to or greater than 20% for this compound? CC(C)=CCC[C@](C)(O)[C@H]1CC[C@]2(C)[C@@H]1[C@H](O)C[C@@H]1[C@@]3(C)CC[C@H](O)C(C)(C)[C@@H]3[C@@H](O[C@@H]3O[C@H](CO)[C@@H](O)[C@H](O)[C@H]3O[C@@H]3O[C@H](CO)[C@@H](O)[C@H](O)[C@H]3O)C[C@]12C [Compound C7, Ginsenoside Rf]
a: -1

q: Is the recorded value of fe-U,0–12h (fraction of dose excreted into urine) equal to or greater than 20% for this compound? CC(C)(O)[C@@H]1CC[C@](C)([C@H]2[C@@H](O)C[C@@]3(C)[C@@H]4C[C@H](O)[C@H]5C(C)(C)[C@@H](O[C@@H]6OC[C@@H](O)[C@H](O)[C@H]6O[C@@H]6O[C@H](CO)[C@@H](O)[C@H](O)[C@H]6O)CC[C@@]56C[C@@]46CC[C@]23C)O1 [Compound B3, Astragaloside III]
a: -1

q: Is the recorded value of fe-U,0–12h (fraction of dose excreted into urine) equal to or greater than 20% for this compound? CC(C)(O)[C@@H]1CC[C@](C)([C@H]2[C@@H](O)C[C@@]3(C)[C@@H]4C[C@H](O[C@@H]5O[C@H](CO)[C@@H](O)[C@H](O)[C@H]5O)[C@H]5C(C)(C)[C@@H](O[C@@H]6OC[C@@H](O)[C@H](O)[C@H]6O[C@@H]6O[C@H](CO)[C@@H](O)[C@H](O)[C@H]6O)CC[C@@]56C[C@@]46CC[C@]23C)O1 [Compound B4, Astragaloside VI]
a: 1

q: Is the recorded value of fe-U,0–12h (fraction of dose excreted into urine) equal to or greater than 20% for this compound? CC(C)=CCC[C@](C)(O[C@@H]1O[C@H](CO)[C@@H](O)[C@H](O)[C@H]1O)[C@H]1CC[C@]2(C)[C@@H]1[C@H](O)C[C@@H]1[C@@]3(C)CC[C@H](O)C(C)(C)[C@@H]3[C@@H](O[C@@H]3O[C@H](CO)[C@@H](O)[C@H](O)[C@H]3O[C@@H]3OC[C@@H](O)[C@H](O)[C@H]3O)C[C@]12C [Compound C10, Ginsenoside R1]
a: 1

q: Is the recorded value of fe-U,0–12h (fraction of dose excreted into urine) equal to or greater than 20% for this compound? O=c1cccc2n1C[C@H]1C[C@@H]2CN2CC[C@H](O)C[C@H]12 [Compound A5, Baptifoline]
a: 1

q: Is the recorded value of fe-U,0–12h (fraction of dose excreted into urine) equal to or greater than 20% for this compound? CC(C)=CCC[C@](C)(O[C@@H]1O[C@H](CO[C@@H]2O[C@H](CO)[C@@H](O)[C@H](O)[C@H]2O)[C@@H](O)[C@H](O)[C@H]1O)[C@H]1CC[C@]2(C)[C@@H]1[C@H](O)C[C@@H]1[C@@]3(C)CC[C@H](O[C@@H]4O[C@H](CO)[C@@H](O)[C@H](O)[C@H]4O[C@@H]4O[C@H](CO)[C@@H](O)[C@H](O)[C@H]4O)C(C)(C)[C@@H]3CC[C@]12C [Compound D5, Ginsenoside Rb1]
a: -1

q: Is the recorded value of fe-U,0–12h (fraction of dose excreted into urine) equal to or greater than 20% for this compound? CC(C)=CCC[C@](C)(O[C@@H]1O[C@H](CO)[C@@H](O)[C@H](O)[C@H]1O)[C@H]1CC[C@]2(C)[C@@H]1[C@H](O)C[C@@H]1[C@@]3(C)CC[C@H](O[C@@H]4O[C@H](CO)[C@@H](O)[C@H](O)[C@H]4O[C@@H]4O[C@H](CO)[C@@H](O)[C@H](O)[C@H]4O)C(C)(C)[C@@H]3CC[C@]12C [Compound D2, Ginsenoside Rd]
a: -1

q: Is the recorded value of fe-U,0–12h (fraction of dose excreted into urine) equal to or greater than 20% for this compound? CC(C)=CCC[C@](C)(O[C@@H]1O[C@H](CO[C@@H]2O[C@@H](CO)[C@H](O)[C@H]2O)[C@@H](O)[C@H](O)[C@H]1O)[C@H]1CC[C@]2(C)[C@@H]1[C@H](O)C[C@@H]1[C@@]3(C)CC[C@H](O[C@@H]4O[C@H](CO)[C@@H](O)[C@H](O)[C@H]4O[C@@H]4O[C@H](CO)[C@@H](O)[C@H](O)[C@H]4O)C(C)(C)[C@@H]3CC[C@]12C [Compound D3, Ginsenoside Rc]
a: -1

q: Is the recorded value of fe-U,0–12h (fraction of dose excreted into urine) equal to or greater than 20% for this compound? CC(C)=CCC[C@](C)(O[C@@H]1O[C@H](CO)[C@@H](O)[C@H](O)[C@H]1O)[C@H]1CC[C@]2(C)[C@@H]1[C@H](O)C[C@@H]1[C@@]3(C)CC[C@H](O)C(C)(C)[C@@H]3[C@@H](O[C@@H]3O[C@H](CO)[C@@H](O)[C@H](O)[C@H]3O)C[C@]12C [Compound C6, Ginsenoside Rg1]
a: 1

q: Is the recorded value of fe-U,0–12h (fraction of dose excreted into urine) equal to or greater than 20% for this compound? CC(C)=CCC[C@](C)(O)[C@H]1CC[C@]2(C)[C@@H]1[C@H](O)C[C@@H]1[C@@]3(C)CC[C@H](O)C(C)(C)[C@@H]3[C@@H](O[C@@H]3O[C@H](CO)[C@@H](O)[C@H](O)[C@H]3O)C[C@]12C [Compound C1, Ginsenoside Rh1]
a: -1

q: Is the recorded value of fe-U,0–12h (fraction of dose excreted into urine) equal to or greater than 20% for this compound? CC(C)=CCC[C@](C)(O)[C@H]1CC[C@]2(C)[C@@H]1[C@H](O)C[C@@H]1[C@@]3(C)CC[C@H](O)C(C)(C)[C@@H]3[C@@H](O[C@@H]3O[C@H](CO)[C@@H](O)[C@H](O)[C@H]3O[C@@H]3O[C@@H](C)[C@H](O)[C@@H](O)[C@H]3O)C[C@]12C [Compound C5, Ginsenoside Rg2]
a: -1

q: Is the recorded value of fe-U,0–12h (fraction of dose excreted into urine) equal to or greater than 20% for this compound? CC(C)=CCC[C@](C)(O[C@@H]1O[C@H](CO)[C@@H](O)[C@H](O)[C@H]1O)[C@H]1CC[C@]2(C)[C@@H]1[C@H](O)C[C@@H]1[C@@]3(C)CC[C@H](O)C(C)(C)[C@@H]3[C@@H](O[C@@H]3O[C@H](CO)[C@@H](O)[C@H](O)[C@H]3O[C@@H]3O[C@@H](C)[C@H](O)[C@@H](O)[C@H]3O)C[C@]12C [Compound C9, Ginsenoside Re]
a: 1
